system: UACC-257; experiment: Growth inhibition of human UACC257 cells after 48 hrs by sulforhodamine B assay; format: functional; details: UACC-257, 48 h
GI50 strictly less than 20 µM = Fulfilled. Otherwise Not fulfilled.

>  <givenSmiles>
COc1cc(CNc2nc3cc(N)cc(N)c3nc2-c2ccccc2)cc(OC)c1

>  <discreteLabel>
Not fulfilled

$$$$
>  <givenSmiles>
Nc1cc(N)c2nc(-c3ccccc3)c(Oc3ccc(Cl)c(Cl)c3)nc2c1

>  <discreteLabel>
Not fulfilled

$$$$
>  <givenSmiles>
Nc1cc(N)c2nc(-c3ccccc3)c(NCc3ccc(Cl)c(Cl)c3)nc2c1

>  <discreteLabel>
Fulfilled

$$$$
>  <givenSmiles>
Nc1cc(N)c2nc(-c3ccccc3)c(NCc3ccc(F)cc3)nc2c1

>  <discreteLabel>
Fulfilled

$$$$
>  <givenSmiles>
COc1ccc(Sc2nc3cc(N)cc(N)c3nc2-c2ccccc2)cc1

>  <discreteLabel>
Not fulfilled

$$$$
>  <givenSmiles>
Nc1cc(N)c2nc(-c3ccccc3)c(Oc3ccc(F)cc3)nc2c1

>  <discreteLabel>
Not fulfilled

$$$$
>  <givenSmiles>
COc1cc(CNc2nc3cc(N)cc(N)c3nc2-c2ccccc2)cc(OC)c1OC

>  <discreteLabel>
Fulfilled

$$$$
>  <givenSmiles>
COc1ccc(Oc2nc3cc(N)cc(N)c3nc2-c2ccccc2)cc1

>  <discreteLabel>
Not fulfilled

$$$$
>  <givenSmiles>
COc1ccc(CNc2nc3cc(N)cc(N)c3nc2-c2ccccc2)cc1

>  <discreteLabel>
Fulfilled

$$$$
>  <givenSmiles>
Nc1cc(N)c2nc(-c3ccccc3)c(Sc3ccc(Cl)c(Cl)c3)nc2c1

>  <discreteLabel>
Fulfilled

$$$$
>  <givenSmiles>
Nc1cc(N)c2nc(-c3ccccc3)c(Sc3ccc(F)cc3)nc2c1

>  <discreteLabel>
Fulfilled

$$$$
>  <givenSmiles>
COc1cc(OC)cc(Oc2nc3cc(N)cc(N)c3nc2-c2ccccc2)c1

>  <discreteLabel>
Fulfilled

$$$$
>  <givenSmiles>
COc1ccc(CNc2nc3cc(N)cc(N)c3nc2-c2ccccc2)cc1OC

>  <discreteLabel>
Fulfilled

$$$$

All values here come from ChEMBL document CHEMBL1137710.
